Assay: soluble fraction after stress (log2 fold change); higher = more stays soluble; pooled small domains, quantitative proteomics
Conditions: stress: 50 degC
reported endpoint: soluble fraction (log2)

Requested read-out: soluble fraction (log2). Entry: HMVRGNLAEELLKLREEEGISFQEAGARSGIARSTISQVVNQGLRLKPNQEESLWRVIEEVRGVKER
0.046

Requested read-out: soluble fraction (log2). Entry: HMDSRQIIAALQARYADETGITALKIKFNNVLGYFVDVPARYGDPLMKPPLSETFIHRQTLASNVRF
-0.0732

Requested read-out: soluble fraction (log2). Entry: HMGEQVFSRKDLAINGNDLKAVFGWPPGPKYREALDQLFHWVLEDPARNRRETLLAYLHSLYD
-0.0199

Requested read-out: soluble fraction (log2). Entry: HMEDGEVTVPDLRGLTIKEAGTILEKLGLHLSPVGTGLAVRQDVAPGSKVARDTTITVEFEPPDIQVLR
0.103

Requested read-out: soluble fraction (log2). Entry: HMSEPFDMAVPLTSGGRRLDQVLAELLPQHSRNRLQGWIRDGLLTLDGVTVTEPKRKLAGGEQLALLLP
-0.13

Requested read-out: soluble fraction (log2). Entry: HMRDKTMLGNVIRTRRKKMNLTLEELSKQVGITSGGLSQIERGLVDPSLSVLRRISRALNLPMNVMFSE
-0.281

Requested read-out: soluble fraction (log2). Entry: HMLTALTDREEEILVLLAHNLSNKEIAKRLNLSVNTVRNHTSHIYEKLNVTSRRKAITLAQSLHLLPP
-1.35

Requested read-out: soluble fraction (log2). Entry: HMKELVEDFASRISNARQSKGWNQSELAKRMAETVNVVKSAESGKSPTDSVIKKLERVLGIILM
-0.591

Requested read-out: soluble fraction (log2). Entry: HMGIVAGGTQSIATLRAIDTTDAQLYPDKILINVEDAGLYRLDRQSTATDDGNQVIKPTVGVGRWLKMTS
-0.11

Requested read-out: soluble fraction (log2). Entry: HMQAVKQIKVERGMTLEKIAQSEFGDSTRWGEIVEVNNLRAPYISDDPTETRDGVLKPGSNLLIPIP
0.094

Requested read-out: soluble fraction (log2). Entry: HMGAAVEVISLRYRSAAELLPIVRSLLSTEGKISADERTNSLIIVDSDEAVARVIHSLATLDT
-0.125

Requested read-out: soluble fraction (log2). Entry: HMNNQIFGLKFRQLRKQQHITLAKAAAGITSRQSLGNWETGKGELAFEKVLLLLKKINVQPIDFLESSIS
-3.67

Requested read-out: soluble fraction (log2). Entry: HMEPVDYEALRKELMQKVMGLFTQSRDVGIQILSSFGAKKLSDVPDDKLVAFAASVDKALAG
-0.0404

Requested read-out: soluble fraction (log2). Entry: HMERYLLRDNIPNALHGERLDRVIAIMTGLSRSAVSALIKSNQVLRNGQIAQSISEKVVEGDELEVHLEP
-0.0223

Requested read-out: soluble fraction (log2). Entry: HMGKTRSTDRTRRAILDAASDLMGKHGTSVSLARIAEAAGMSKGGLLHHFPSRNDLIRALGED
0.189

Requested read-out: soluble fraction (log2). Entry: HMDPNAITSAQVTKLQVLANEKGFAERQARLTMWAEVIGRNVGTANELTKAEAHKLIEHMDALPV
-0.488

Requested read-out: soluble fraction (log2). Entry: HMNYTQAQIDRANAVSLEDFLRTQGETLIKSGREYRWKEHDSLTVRGNKWFRHSQSKGGYPIDFVMEFTA
0.0368

The values you see were collected from the domain aggregation screens of Martell et al. (2025).
